All values here come from patent US11053225B2.

Target or system UniProt Q12809: recorded IC50 listed per item.
Sequence (Q12809 whole entry): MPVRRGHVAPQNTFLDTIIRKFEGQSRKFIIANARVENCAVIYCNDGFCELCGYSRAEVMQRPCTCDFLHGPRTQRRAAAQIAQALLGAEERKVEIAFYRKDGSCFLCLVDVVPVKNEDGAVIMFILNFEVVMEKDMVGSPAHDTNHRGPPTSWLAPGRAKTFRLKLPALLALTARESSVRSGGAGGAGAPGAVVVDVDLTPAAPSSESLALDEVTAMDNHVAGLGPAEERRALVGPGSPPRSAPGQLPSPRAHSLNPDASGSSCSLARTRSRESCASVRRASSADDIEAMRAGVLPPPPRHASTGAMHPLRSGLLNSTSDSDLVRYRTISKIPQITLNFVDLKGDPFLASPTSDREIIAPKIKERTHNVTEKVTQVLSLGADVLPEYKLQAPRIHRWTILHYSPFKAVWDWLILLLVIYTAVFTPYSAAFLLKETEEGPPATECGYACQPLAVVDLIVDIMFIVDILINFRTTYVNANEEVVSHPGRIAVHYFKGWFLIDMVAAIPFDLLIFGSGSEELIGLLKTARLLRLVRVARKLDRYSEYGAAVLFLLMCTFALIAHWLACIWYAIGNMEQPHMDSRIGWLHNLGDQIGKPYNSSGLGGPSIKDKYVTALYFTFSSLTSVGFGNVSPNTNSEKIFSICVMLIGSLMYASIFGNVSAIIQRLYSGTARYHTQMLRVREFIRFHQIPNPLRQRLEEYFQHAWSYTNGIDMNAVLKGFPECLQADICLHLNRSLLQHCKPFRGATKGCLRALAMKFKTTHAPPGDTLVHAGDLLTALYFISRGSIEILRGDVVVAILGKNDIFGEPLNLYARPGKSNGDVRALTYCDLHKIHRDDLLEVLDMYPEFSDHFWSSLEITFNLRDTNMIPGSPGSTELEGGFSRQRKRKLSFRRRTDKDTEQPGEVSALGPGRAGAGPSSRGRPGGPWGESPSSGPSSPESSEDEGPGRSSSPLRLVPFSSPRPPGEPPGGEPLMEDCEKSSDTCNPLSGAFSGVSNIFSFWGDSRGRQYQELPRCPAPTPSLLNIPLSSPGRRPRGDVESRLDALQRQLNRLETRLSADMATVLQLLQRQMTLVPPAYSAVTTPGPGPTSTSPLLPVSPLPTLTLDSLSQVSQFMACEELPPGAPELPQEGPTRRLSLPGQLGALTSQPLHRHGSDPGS

MOLECULE: OCCn1cc(-c2cnc(Nc3cc(Cl)cc(Cl)c3)nc2NC2CCNCC2)cn1 [Compound 75]
OBSERVED: ≥ 50 µM

The value of IC50 recorded for COc1cccc(-c2cnc(Nc3cc(Cl)cc(Cl)c3)nc2NC2CCNCC2)c1 [Compound 60] when tested on UniProt Q12809 reads ≤ 1 µM

The value of IC50 recorded for Cn1cc(-c2cnc(Nc3cc(Cl)cc(Cl)c3)nc2NC2CCNCC2)cn1 [Compound 29] when tested on UniProt Q12809 reads ≤ 1 µM

The value of IC50 recorded for Clc1cc(Cl)cc(Nc2ncc(-c3cnn(C4CCNCC4)c3)c(NC3CCNCC3)n2)c1 [Compound 73] when tested on UniProt Q12809 reads ≥ 50 µM
